molecular target: human recombinant COX-2 (Homo sapiens); construct: purchased Cayman Chemicals; test: Cyclooxygenase assay (PGE2 quantification), COX-2; assay type: biochemical; details: mean ± SD; n = 3
Sequence (P35354 18-604): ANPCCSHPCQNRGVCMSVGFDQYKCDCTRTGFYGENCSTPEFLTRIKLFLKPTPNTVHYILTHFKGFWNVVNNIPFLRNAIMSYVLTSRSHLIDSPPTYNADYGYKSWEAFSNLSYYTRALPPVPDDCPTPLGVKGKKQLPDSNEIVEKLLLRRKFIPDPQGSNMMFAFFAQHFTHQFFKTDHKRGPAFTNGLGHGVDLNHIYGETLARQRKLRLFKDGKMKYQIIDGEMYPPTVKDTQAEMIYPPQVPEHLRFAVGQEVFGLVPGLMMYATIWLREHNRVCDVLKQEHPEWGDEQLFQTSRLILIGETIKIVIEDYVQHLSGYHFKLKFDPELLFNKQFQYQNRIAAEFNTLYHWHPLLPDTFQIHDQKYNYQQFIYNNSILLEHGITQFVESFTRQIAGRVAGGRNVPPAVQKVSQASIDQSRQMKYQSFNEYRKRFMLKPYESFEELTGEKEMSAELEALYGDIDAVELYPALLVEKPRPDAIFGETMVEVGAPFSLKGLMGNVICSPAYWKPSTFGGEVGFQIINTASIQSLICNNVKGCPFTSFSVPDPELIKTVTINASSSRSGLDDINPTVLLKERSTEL
Lab note: anything with IC50 below 7 µM is marked met; values at 7 µM or higher are marked not met.

Solved entries:
| structure_notation | assigned_class |
| --- | --- |
| O=C(/C=C/c1ccc(F)cc1)c1cccc(/N=N\c2ccc(O)c(C(=O)O)c2)c1 | met |
| O=C(/C=C/c1ccc(F)cc1)c1cccc(/N=N/c2ccc(O)cc2O)c1 | not met |
| CC(=O)c1cccc(/N=N/c2ccc(O)c3ccccc23)c1 | not met |

Moving on to another molecule below.
Threshold test, IC50 < 7 µM: CN(C)c1ccc(/C=C/C(=O)c2ccc(/N=N/c3ccc(O)c(C(=O)O)c3)cc2)cc1
met
